# % 25 nM CA200645 binding values compiled below
ASSAY SYSTEM: human A3AR (Homo sapiens, UniProt P0DMS8)
Construct: expressed in transfected cells
Sequence (P0DMS8 whole entry): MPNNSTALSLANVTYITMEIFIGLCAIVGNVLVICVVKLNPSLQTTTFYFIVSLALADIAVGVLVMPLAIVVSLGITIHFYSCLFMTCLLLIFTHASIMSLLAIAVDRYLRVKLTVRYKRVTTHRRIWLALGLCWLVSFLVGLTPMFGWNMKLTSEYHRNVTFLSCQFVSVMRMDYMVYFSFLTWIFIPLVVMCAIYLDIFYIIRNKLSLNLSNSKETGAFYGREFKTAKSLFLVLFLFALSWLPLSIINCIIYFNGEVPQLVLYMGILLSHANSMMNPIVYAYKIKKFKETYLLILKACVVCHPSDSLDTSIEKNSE
ASSAY PROCEDURE: LOPAC library primary screen: single concentration (10 μM) inhibition of 25 nM CA200645 binding, PHERAstar FS
Counter-ions that a name gives are not always drawn.
QUANTITY: % 25 nM CA200645 binding (%)

[[record]]
molecule = "Br.CN1Cc2sccc2C(c2ccc(O)c(O)c2)C1 (centres unmarked) [SKF-89145 hydrobromide]"
assay_system = "human A3AR (Homo sapiens, UniProt P0DMS8)"
number = 97.3

[[record]]
molecule = "CNC(=O)[C@H]1O[C@@H](n2cnc3c(NCc4cccc(I)c4)ncnc32)[C@H](O)[C@@H]1O [IB-MECA, reference compound]"
assay_system = "human A3AR (Homo sapiens, UniProt P0DMS8)"
number = 36.3

[[record]]
molecule = "CCn1nc(C(=O)O)c(=O)c2cc3c(cc21)OCO3"
assay_system = "human A3AR (Homo sapiens, UniProt P0DMS8)"
number = 96.9

[[record]]
molecule = "CC(=O)Nc1nnc(S(N)(=O)=O)s1 [Acetazolamide]"
assay_system = "human A3AR (Homo sapiens, UniProt P0DMS8)"
number = 92.4

[[record]]
molecule = "CC/C(=C(\\c1ccccc1)c1ccc(OCCN(C)C)cc1)c1ccccc1"
assay_system = "human A3AR (Homo sapiens, UniProt P0DMS8)"
number = 83.1

[[record]]
molecule = "O=C1Cc2cc(CCN3CCN(c4nsc5ccccc45)CC3)c(Cl)cc2N1 [Ziprasidone hydrochloride monohydrate]"
assay_system = "human A3AR (Homo sapiens, UniProt P0DMS8)"
number = 84.7

[[record]]
molecule = "CC(=O)NC[C@H]1CN(c2ccc(N3CCOCC3)c(F)c2)C(=O)O1"
assay_system = "human A3AR (Homo sapiens, UniProt P0DMS8)"
number = 100.5

[[record]]
molecule = "Cl.NC1(C(=O)O)CCCCC1"
assay_system = "human A3AR (Homo sapiens, UniProt P0DMS8)"
number = 108.3

[[record]]
molecule = "COc1ccc(NC=O)c(C(=O)CCNC(C)=O)c1"
assay_system = "human A3AR (Homo sapiens, UniProt P0DMS8)"
number = 100.0

[[record]]
molecule = "CN(C)c1nc(N)c(C(=O)NC(=N)N)nc1Cl [5-(N,N-Dimethyl)amiloride hydrochloride]"
assay_system = "human A3AR (Homo sapiens, UniProt P0DMS8)"
number = 95.5

[[record]]
molecule = "Clc1cccc(Cl)c1N=C1NCCN1 [Clonidine hydrochloride]"
assay_system = "human A3AR (Homo sapiens, UniProt P0DMS8)"
number = 101.9

[[record]]
molecule = "O=c1oc(Cl)c(Cl)c2ccccc12"
assay_system = "human A3AR (Homo sapiens, UniProt P0DMS8)"
number = 95.8

[[record]]
molecule = "NCCCCCC(=O)O"
assay_system = "human A3AR (Homo sapiens, UniProt P0DMS8)"
number = 109.0

[[record]]
molecule = "O=C(O)[C@@H]1CCN1"
assay_system = "human A3AR (Homo sapiens, UniProt P0DMS8)"
number = 100.7

[[record]]
molecule = "c1ccc2c(c1)CCCC2C1=NCCN1 (centres unmarked) [Tetrahydrozoline hydrochloride]"
assay_system = "human A3AR (Homo sapiens, UniProt P0DMS8)"
number = 98.2

[[record]]
molecule = "OC(CCN1CCCCC1)(c1ccccc1)C1CC2C=CC1C2 (centres unmarked) [Biperiden hydrochloride]"
assay_system = "human A3AR (Homo sapiens, UniProt P0DMS8)"
number = 86.9

[[record]]
molecule = "Cc1ccc(N(CC2=NCCN2)c2cccc(O)c2)cc1 [Phentolamine mesylate]"
assay_system = "human A3AR (Homo sapiens, UniProt P0DMS8)"
number = 98.9

[[record]]
molecule = "C=C1C[C@@]23CC[C@H]4[C@@](C)(CCC[C@@]4(C)C(=O)O[C@@H]4O[C@H](CO)[C@@H](O)[C@H](O)[C@H]4O)[C@@H]2CC[C@]1(O[C@@H]1O[C@H](CO)[C@@H](O)[C@H](O)[C@H]1O[C@@H]1O[C@H](CO)[C@@H](O)[C@H](O)[C@H]1O)C3 [Stevioside]"
assay_system = "human A3AR (Homo sapiens, UniProt P0DMS8)"
number = 92.4

[[record]]
molecule = "OCCN(CCO)c1nc(N2CCCCC2)c2nc(N(CCO)CCO)nc(N3CCCCC3)c2n1"
assay_system = "human A3AR (Homo sapiens, UniProt P0DMS8)"
number = 78.8

[[record]]
molecule = "CCCNC(C)C(=O)Nc1ccccc1C (centres unmarked) [Prilocaine hydrochloride]"
assay_system = "human A3AR (Homo sapiens, UniProt P0DMS8)"
number = 106.9

[[record]]
molecule = "O=c1nc2[nH]c3ccccc3nc-2c(=O)[nH]1 [alloxazine, reference compound]"
assay_system = "human A3AR (Homo sapiens, UniProt P0DMS8)"
number = 89.0

[[record]]
molecule = "Nc1c2c(nc3ccccc13)CCCC2O.O=C(O)/C=C\\C(=O)O (centres unmarked) [Hydroxytacrine maleate]"
assay_system = "human A3AR (Homo sapiens, UniProt P0DMS8)"
number = 108.6

[[record]]
molecule = "CNCCC(Oc1ccc(C(F)(F)F)cc1)c1ccccc1 (centres unmarked) [Fluoxetine hydrochloride]"
assay_system = "human A3AR (Homo sapiens, UniProt P0DMS8)"
number = 102.9

[[record]]
molecule = "CN(C)CCCN1c2ccccc2Sc2ccccc21 [Promazine hydrochloride]"
assay_system = "human A3AR (Homo sapiens, UniProt P0DMS8)"
number = 80.6

[[record]]
molecule = "N=C(N)NCCC[C@H](N)C(=O)O"
assay_system = "human A3AR (Homo sapiens, UniProt P0DMS8)"
number = 97.1

[[record]]
molecule = "COc1ccc(Cc2nccc3cc(OC)c(OC)cc23)cc1OC [Papaverine hydrochloride]"
assay_system = "human A3AR (Homo sapiens, UniProt P0DMS8)"
number = 86.6

[[record]]
molecule = "Cc1cc(Cl)ccc1OCCCC(=O)NO"
assay_system = "human A3AR (Homo sapiens, UniProt P0DMS8)"
number = 96.3

[[record]]
molecule = "Nc1nnc(-c2cccc(Cl)c2Cl)c(N)n1"
assay_system = "human A3AR (Homo sapiens, UniProt P0DMS8)"
number = 93.6

[[record]]
molecule = "Nc1ccncc1"
assay_system = "human A3AR (Homo sapiens, UniProt P0DMS8)"
number = 93.6

[[record]]
molecule = "Nc1nc(O)c2ncn(COC(CO)CO)c2n1"
assay_system = "human A3AR (Homo sapiens, UniProt P0DMS8)"
number = 96.3

[[record]]
molecule = "Nc1nc2c(cnn2CCc2ccccc2)c2nc(-c3ccco3)nn12 [SCH 58261, reference compound]"
assay_system = "human A3AR (Homo sapiens, UniProt P0DMS8)"
number = 52.5

[[record]]
molecule = "CN(C)CCC(c1ccc(Br)cc1)c1ccccn1.O=C(O)/C=C\\C(=O)O (racemic) [(±)-Brompheniramine maleate]"
assay_system = "human A3AR (Homo sapiens, UniProt P0DMS8)"
number = 101.5

[[record]]
molecule = "COc1ccc2c(c1OC)C(=O)O[C@@H]2[C@H]1c2c(cc3c(c2OC)OCO3)CCN1C.Cl [Noscapine hydrchloride]"
assay_system = "human A3AR (Homo sapiens, UniProt P0DMS8)"
number = 114.6

[[record]]
molecule = "NCC(O)(CS(=O)(=O)O)c1ccc(Cl)cc1 (centres unmarked) [2-Hydroxysaclofen]"
assay_system = "human A3AR (Homo sapiens, UniProt P0DMS8)"
number = 92.7

[[record]]
molecule = "CN1CCN(c2nc3cc(C(F)(F)F)ccc3n3cccc23)CC1.O=C(O)/C=C\\C(=O)O [CGS-12066A maleate]"
assay_system = "human A3AR (Homo sapiens, UniProt P0DMS8)"
number = 97.3

